# Tested on: Staphylococcus sp.
# METHOD_SUMMARY: in vitro antibacterial evaluation, MIC by broth dilution
# Format: cell-based
# RECORDED_CONDITIONS: broth dilution, 18 hours at 35° C.
ENDPOINT_LABEL: MIC Coagulase Negative Staphylococcus (GC 4547) (µg/mL)
Please respond with the number in µg/mL and leave the unit unwritten.

// solved cases for MIC Coagulase Negative Staphylococcus (GC 4547) follow
### Prompt Please report the recorded MIC Coagulase Negative Staphylococcus (GC 4547) for CC(c1ccccc1)C1NC(=O)CNC(=O)C(CO)NC(=O)C(C(O)C2CNC(=N)N2C2OC(CO)C(O)C(O)C2O)NC(=O)C(C(O)C2CNC(=N)N2)NC(=O)C(Cc2ccc(OC3OC(CO)C(OC4OC5COC(Cc6ccccc6)OC5C(O)C4O)C(O)C3O)cc2)NC1=O (centres unmarked) [Example 102] .
### Response 1

### Prompt Please report the recorded MIC Coagulase Negative Staphylococcus (GC 4547) for CCCCCCCC1OCC2OC(OC3C(CO)OC(Oc4ccc(CC5NC(=O)C(C(C)c6ccccc6)NC(=O)CNC(=O)C(CO)NC(=O)C(C(O)C6CNC(=N)N6C6OC(CO)C(O)C(O)C6O)NC(=O)C(C(O)C6CNC(=N)N6)NC5=O)cc4)C(O)C3O)C(O)C(O)C2O1 (centres unmarked) [Example 109] .
### Response 1

### Prompt Please report the recorded MIC Coagulase Negative Staphylococcus (GC 4547) for CC=C(C)C(=O)OC1C(CO)OC(OC2C(CO)OC(Oc3ccc(CC4NC(=O)C(C(C)c5ccccc5)NC(=O)CNC(=O)C(CO)NC(=O)C(C(O)C5CNC(=N)N5C5OC(CO)C(O)C(O)C5O)NC(=O)C(C(O)C5CNC(=N)N5)NC4=O)cc3)C(O)C2O)C(O)C1O (centres unmarked) [Example 278b] .
### Response 4

Further cases:
### Prompt Please report the recorded MIC Coagulase Negative Staphylococcus (GC 4547) for CC(c1ccccc1)C1NC(=O)CNC(=O)C(CO)NC(=O)C(C(O)C2CNC(=N)N2C2OC(CO)C(O)C(O)C2O)NC(=O)C(C(O)C2CNC(=N)N2)NC(=O)C(Cc2ccc(OC3OC(CO)C(OC4OC5COC(c6ccccc6)OC5C(O)C4O)C(O)C3O)cc2)NC1=O (centres unmarked) [Example 104] .
### Response 1

### Prompt Please report the recorded MIC Coagulase Negative Staphylococcus (GC 4547) for CC(c1ccccc1)C1NC(=O)CNC(=O)C(CO)NC(=O)C(CC2CNC(=N)N2C2OC(CO)C(O)C(O)C2O)NC(=O)C(CC2CNC(=N)N2)NC(=O)C(Cc2ccc(OC3OC(CO)C(OC4OC(CO)C(O)C(OCc5ccc(OCc6ccccc6)cc5)C4O)C(O)C3O)cc2)NC1=O (centres unmarked) [Example 246b] .
### Response 64

### Prompt Please report the recorded MIC Coagulase Negative Staphylococcus (GC 4547) for COc1ccc(COCC2OC(OC3C(CO)OC(Oc4ccc(CC5NC(=O)C(C(C)c6ccccc6)NC(=O)CNC(=O)C(CO)NC(=O)C(C(O)C6CNC(=N)N6C6OC(CO)C(O)C(O)C6O)NC(=O)C(C(O)C6CNC(=N)N6)NC5=O)cc4)C(O)C3O)C(O)C(O)C2O)cc1F (centres unmarked) [Example 237] .
### Response 2

### Prompt Please report the recorded MIC Coagulase Negative Staphylococcus (GC 4547) for CC(C)CC(=O)OCC1OC(OC2C(CO)OC(Oc3ccc(CC4NC(=O)C(Cc5ccccc5)NC(=O)CNC(=O)C(CO)NC(=O)C(C(O)C5CNC(=N)N5C5OC(CO)C(O)C(O)C5O)NC(=O)C(C(O)C5CNC(=N)N5)NC4=O)cc3)C(O)C2O)C(O)C(O)C1O (centres unmarked) [Example 283c] .
### Response 16
